# pEC50 per entry
- target_entity: human Claudin-6 (CLDN6) (human) (UniProt P56747)
- test_details: FACS titration of labelled mAb on OVCA429 cells (endogenous CLDN6+)
Expect pEC50 as a plain number equal to -log10 of the molar concentration.

Take a look at these entries with their results.
Identify pEC50 associated with the binder AB3 (antibody, V domains shown, full-length IgG (ExpiCHO)) VH: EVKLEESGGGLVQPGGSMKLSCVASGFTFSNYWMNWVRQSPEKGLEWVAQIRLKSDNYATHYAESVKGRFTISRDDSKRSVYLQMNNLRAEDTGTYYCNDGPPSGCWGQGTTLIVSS VL: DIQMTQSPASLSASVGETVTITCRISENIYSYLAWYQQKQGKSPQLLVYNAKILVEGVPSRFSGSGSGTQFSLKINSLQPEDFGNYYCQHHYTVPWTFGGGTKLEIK
5.96

Output measured pEC50 for this item: AB15 (antibody, V domains shown, full-length IgG (ExpiCHO)) VH: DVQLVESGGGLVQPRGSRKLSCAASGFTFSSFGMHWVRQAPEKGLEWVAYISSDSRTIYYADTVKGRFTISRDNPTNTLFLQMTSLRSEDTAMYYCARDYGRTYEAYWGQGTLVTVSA VL: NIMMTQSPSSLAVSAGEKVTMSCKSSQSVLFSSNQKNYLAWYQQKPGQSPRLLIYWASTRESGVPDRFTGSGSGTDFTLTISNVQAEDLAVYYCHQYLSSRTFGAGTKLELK
5.30

Supply pEC50 value. Item: AB14 (antibody, V domains shown) VH: QVQLQQSGPELVRPGVSVKISCKGSGYTFTDYAMHWVKQSHAKSLEWIGVISTYSGNTNYNQKFQDKATMTVDKSSSTAYMALARLTSDDSAIYYCARRGDYSLYAMDYWGQGTSVTVSS VL: DIVLTQSPASLAVSLGQRATISCKASQSVDYDGDNYVNWYQQKVGQPPKLLISAASNLESGIPARFSGSGSGTDFTLNIHPVEEEDAATYYCQQSNEDPFTFGSGTKLEIK
5.78

Return pEC50 (reported value) for this binder: AB7 (antibody, V domains shown, full-length IgG (ExpiCHO)) VH: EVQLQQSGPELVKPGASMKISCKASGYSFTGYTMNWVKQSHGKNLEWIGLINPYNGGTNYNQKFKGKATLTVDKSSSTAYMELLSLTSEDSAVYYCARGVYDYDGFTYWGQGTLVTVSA VL: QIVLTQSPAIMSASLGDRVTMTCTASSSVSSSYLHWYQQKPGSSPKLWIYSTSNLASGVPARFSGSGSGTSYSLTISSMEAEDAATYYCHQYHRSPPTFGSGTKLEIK
6.27

Let us move to another entry and its pEC50.
Provide one value: measured pEC50 of AB18 (antibody, V domains shown) VH: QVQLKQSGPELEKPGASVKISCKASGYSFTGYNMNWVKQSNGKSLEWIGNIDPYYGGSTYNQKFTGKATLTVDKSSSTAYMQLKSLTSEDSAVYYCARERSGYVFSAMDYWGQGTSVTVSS VL: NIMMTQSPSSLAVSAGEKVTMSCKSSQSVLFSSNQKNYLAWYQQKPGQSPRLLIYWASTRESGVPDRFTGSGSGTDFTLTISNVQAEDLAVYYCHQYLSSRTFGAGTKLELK
5.61

These measurements were taken from patent US20230049752A1.
